- system_under_test: human A3 receptors (Homo sapiens, UniProt P0DMS8)
- Construct: expressed in transfected cells; host or cells: HEK-293 cells (membranes)
- Sequence (P0DMS8 whole entry): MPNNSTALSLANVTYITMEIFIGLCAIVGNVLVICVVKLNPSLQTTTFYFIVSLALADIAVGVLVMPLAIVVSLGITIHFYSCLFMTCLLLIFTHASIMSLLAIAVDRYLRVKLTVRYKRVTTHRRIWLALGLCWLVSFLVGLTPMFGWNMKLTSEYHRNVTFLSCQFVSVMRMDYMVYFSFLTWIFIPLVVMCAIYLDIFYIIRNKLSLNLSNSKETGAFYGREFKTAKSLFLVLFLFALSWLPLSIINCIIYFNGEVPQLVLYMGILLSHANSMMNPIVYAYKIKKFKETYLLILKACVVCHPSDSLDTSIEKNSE
- experimental_protocol: radioligand binding, displacement of specific [125I]AB-MECA binding at human A3 receptors expressed in HEK-293 cells
- condition_description: Table 15; ratio of Ki
reported_metric: rA1/hA3
Reply with just the number.

> print(dat)
                               smiles.entry  reported.metric  endpoint.value
1  CC(C)(C)C(=O)Nc1nc2ccc(Cl)cc2c2nc(-c3ccco3)nn12          rA1/hA3            0.84
2  CCC(=O)Nc1nc2ccc(Cl)cc2c2nc(-c3ccco3)nn12          rA1/hA3              40
3  CCCCC(=O)Nc1nc2ccc(Cl)cc2c2nc(-c3ccco3)nn12          rA1/hA3             1.3

Turning now to a further record.
Look up rA1/hA3 for this compound: O=C(Nc1nc2ccc(Cl)cc2c2nc(-c3ccco3)nn12)c1ccccc1
164
